Test system: MDA-MB-231 breast
Experiment Notes: NCI tumour cell line growth inhibition, 48 h
The reader will find reported TGI values listed item by item below.
Entry rule: numbers only, all in µM.

Below, 2 compounds whose answers are already recorded.
Measured TGI, COc1cc2c(cc1OC)C(=O)/C(=C/c1cc(-c3ccc4c(c3)OCO4)n[nH]1)C2 : 3.2

Entry O=C([O][Sn]([O]C(=O)c1ccccn1)([c]1ccccc1)[c]1ccccc1)c1ccccn1 , TGI reported as 18.4

Consider now this further compound.
Memo: C=CCOn1c(C=C)nc2ccc(C)cc21 , reported TGI: 48.1

====

GI50 for assorted compounds
Test system: MDA-MB-231 breast
Experiment Notes: NCI tumour cell line growth inhibition, 48 h

Consider the reported GI50 for these compounds:
Field GI50 (system: MDA-MB-231 breast) for entry O=c1/c(=C\c2ccc(F)cc2)sc2n1C(c1ccc(F)cc1)C1=C(N=2)c2ccc3ccccc3c2OCC1 (stereo not drawn) = > 100000 nM

MDA-MB-231 breast GI50 of O=c1cc(N/N=C/c2ccc(F)cc2)c2cc(Cl)ccc2[nH]1 is 16000 nM

The measured GI50 that COc1ccc(C(O)c2cc3c(N)c(C(=O)Nc4cccc(Cl)c4)sc3nc2C)cc1 (stereo not drawn) showed for MDA-MB-231 breast is 1410 nM

More entries:
GI50 value, target or system MDA-MB-231 breast, for COc1ccc(C(=O)NNc2nc(Cl)nc(N3CCN(C(c4ccccc4)c4ccccc4)CC3)n2)cc1 : 1940 nM

# Cc1cc(O)c(C2=NN(c3ccc(S(N)(=O)=O)cc3)C(c3ccc(Cl)cc3)C2)c(C)c1Cl (stereo not drawn) with MDA-MB-231 breast: GI50 is 2340 nM

# lookup: Cc1ccc(S(=O)(=O)c2nc(-c3ccccc3)oc2S(C)=O)cc1 (stereo not drawn) on MDA-MB-231 breast, GI50 = 1470 nM

Hey, MDA-MB-231 breast data for O=C1CCC(N2C(=O)c3ccccc3C2=O)C(=O)N1 (stereo not drawn) : GI50 came out at > 100000 nM

Readout GI50 for Cc1c2cc(Cl)c3ccccc3c2c[n+]2ccccc12 , test system MDA-MB-231 breast, was 11900 nM

====

Test system: UACC-257 melanoma
Experiment Notes: NCI tumour cell line growth inhibition, 48 h
Listing: TGI of selected compounds

Record CC(C)(C)[Si](C)(C)OCc1cccc(OCCOc2cccc(CO[Si](C)(C)C(C)(C)C)c2[N+](=O)[O-])c1[N+](=O)[O-] . Reported TGI: > 100 µM

---
The compound listed as CCc1cc2c(c3c1CCCC3=O)CC1(Cc3ccc(C(=O)OC)cc3C1)C2 (stereo not drawn) shows TGI equal to > 100 µM

For this compound ( Cc1ccccc1-c1nc2c(C(=O)NCCN(C)C)cccc2[nH]1 ), measured TGI is > 100 µM

====

Test system: HOP-92 NSCLC
Experiment Notes: NCI tumour cell line growth inhibition, 48 h
Parameter: TGI

Observe how each entry below is paired with its result.
Looking up N.N.N.N.N.O=[N+]([O-])[O-].[Co+3].[O-][Cl+3]([O-])([O-])[O-] , I found its TGI recorded as > 100 µM

Record summary for COc1ccc(OC)c(SC(CC(=O)c2ccccc2)c2ccccc2)c1 (stereo not given) : reported TGI = > 100 µM

Record OCc1ccc(-c2cscc2-c2ccc(CO)o2)o1 , field TGI: > 94 µM

Input N/N=C1\C(=O)N(c2ccc(Cl)cc2Cl)C(=O)C(=O)C1c1nc2ccccc2o1 (stereo not given) . Output TGI: > 100 µM

Reported TGI for CC1=NN(C(=O)c2ccc(Cl)cc2)C(=O)/C1=C/c1ccccc1O was > 100 µM

The value of TGI measured for the molecule Cc1nc2ccc(NC(=O)CCNC(=O)CCCc3ccc(CC(C(=O)O)C(=O)O)cc3)cc2s1 turned out to be > 100 µM

Entry CCOP(=O)(OCC)/C(=C/c1cccs1)CC(C)=O ; TGI = > 100 µM

Lab note: measured TGI of CCOC(=O)c1cc(C)nc2c1c(=O)n(-c1ccccc1)c(=O)n2CCCCN1CCN(c2ccccc2)CC1 was > 100 µM

Noted for CC(C)(C)[Si](C)(C)OCc1cccc(OCCOc2cccc(CO[Si](C)(C)C(C)(C)C)c2[N+](=O)[O-])c1[N+](=O)[O-] : its TGI reads > 100 µM

Next molecule, TGI to be filled in.
Looking up O=c1oc(C(C(F)(F)F)C(F)(F)F)nc2ccccc12 , I see its TGI listed as > 100 µM

====

TGI by entry:
Tested on: NCI/ADR-RES ovarian
Experiment Notes: NCI tumour cell line growth inhibition, 48 h

Check out these entries, answers already filled in.
NCI/ADR-RES ovarian assay, compound O=C(c1ccccc1)c1c(NCC(O)CN2CCOCC2)n(Cc2ccccc2)c(=O)n(Cc2ccccc2)c1=O (centres undefined) , recorded TGI = > 27.4 µM

Record for CC1(C)CC2(CC(C)(C)N1O)NC(=O)OC2=O under target or system NCI/ADR-RES ovarian: TGI reported as > 100 µM

# CCOC(=O)c1cc(C)nc2c1c(=O)n(-c1ccccc1)c(=O)n2CCCCN1CCN(c2ccccc2)CC1 with NCI/ADR-RES ovarian: TGI is > 100 µM

Now, please, on to the next compound.
Result for CCOC(=O)c1cc2c([N+](=O)[O-])c(N)ccc2s1 , tested on NCI/ADR-RES ovarian, TGI: > 100 µM

====

Tested on: CCRF-CEM leukemia
Experiment Notes: NCI tumour cell line growth inhibition, 48 h
# maps each entry to its GI50

See these solved cases before continuing.
GI50 for COC(=O)COc1ccc(/C=C2/N=C(c3ccccc3)N(c3c(C)n(C)n(-c4ccccc4)c3=O)C2=O)cc1 is 13.2 µM

GI50 recorded for this compound, CCCCCC[C@H](C)Nc1nc2ccccc2c2occc12 , is 4.33 µM

GI50 reading for CC(C)(C)OC(=O)NCCCn1c2c(c3ccccc3c1=O)C(=O)c1ccccc1-2 : > 100 µM

Others:
# compound O=c1cc(N/N=C/c2ccc(F)cc2)c2cc(Cl)ccc2[nH]1 ; its GI50 = 12 µM

====

Tested on: EKVX NSCLC
Experiment Notes: NCI tumour cell line growth inhibition, 48 h
Parameter: TGI

Examples from the recorded data:
Documented TGI of COc1ccc2[nH]c(O)c(/C=c3/cc4c(c(-c5ccc(F)c(OC)c5)n3)=Nc3ccccc3-4)c2c1 : 36 µM

For Cc1ccc(N=Nc2c(O)ccc3ccccc23)cc1 the molecule record lists TGI as > 100 µM

Summary for this molecule, C#Cc1c(C)c(/C=C/C(C)=C/C(=O)OC)n(C)c1C : TGI is > 100 µM

Measured TGI of O=S(=O)(NCn1ccc2ccccc21)c1ccccc1 : > 100 µM

TGI reported for this molecule C=C1CCC2(C#N)[C@H]3[C@H](CC[C@@H]2C)[C@@H](C)C[C@@H](CC(C)(C)NC(=O)CN2CCC2=O)[C@H]13 (some centres not stated) : > 100 µM

Others:
Value of measured TGI for the entry COc1ccc(C(O)c2cc3c(N)c(C(=O)Nc4cccc(Cl)c4)sc3nc2C)cc1 (configuration not stated) : > 86.9 µM

molecule CC1=Cc2ccc(C)cc2C(=O)C1=O , TGI observed: 42.3 µM

Value of TGI reported for the molecule O=C(O)COc1cc(-c2ccccc2)nc2cc(F)ccc12 is > 100 µM

# molecule O=C(O)CCNCCCCNCCC(=O)O ; its TGI = > 100 µM

response.value for Cc1cc(=O)[nH]c(NN2C(Cl)C(=O)C2c2ccc([N+](=O)[O-])cc2)n1 (configuration not stated) (field: TGI) = 78.8 µM

Input Cc1nc(Nc2ccccn2)sc1C(=O)/C=C/c1ccc(Cl)cc1 . Output TGI: > 100 µM

Record O=C(Nc1ccc(-c2nc(-c3cccc(OCCN4CCOCC4)c3)c(-c3ccnc(Br)c3)[nH]2)cc1)c1ccccc1 . Reported TGI: 6.97 µM

====

System: HOP-92 NSCLC
Experiment Notes: NCI tumour cell line growth inhibition, 48 h
Below: a set of entries, each annotated with reported TGI.

# count of solved cases: 2
So the reported TGI for CC(C)(C)OC(=O)NCC(CNC(=O)OC(C)(C)C)c1nc(C(N)=O)cs1 , on HOP-92 NSCLC, turned out to be > 100 µM

Given the compound Cc1cc(C)c2c(c1)C(=O)/C(=C/c1ccccc1C(=O)O)C2 and test system HOP-92 NSCLC, the measured TGI is > 100 µM

Please look at the following compound next.
// TGI (HOP-92 NSCLC) for COc1ccc(C(=O)CC(c2ccccc2)[C@H]2C(c3ccc(OC)cc3)=Nc3c(nc(SC)n(C)c3=O)NC2c2ccccc2)cc1 (stereo partly drawn) = > 100 µM
